# target of assay: BCL2 G101V (Homo sapiens, UniProt P10415, G101V)
# assay text: TR-FRET competitive binding assay, BCL2 G101V
# experimental conditions: BCL2 G101V; Ki determined from IC50; read-out: TR_FRET EKI_Bcl2 G101V
recorded endpoint: Ki (pM)

[1] Cc1c(N(C(=O)c2cc(-c3cc4c(cc3C(=O)N3Cc5ccccc5C[C@H]3C)CN(C(=O)Cc3ccc(OCCN5C[C@@H](C)O[C@@H](C)C5)cc3)CC4)n(C)c2C)c2ccc(O)cc2)cc(C#N)n1C
[2] Cc1c(N(C(=O)c2cc(-c3cc4c(cc3C(=O)N3Cc5ccccc5C[C@H]3C)CN(C(=O)Cc3ccc(OCCN5CCC(F)CC5)cc3)CC4)n(C)c2C)c2ccc(O)cc2)cc(C#N)n1C
[3] Cc1c(N(C(=O)c2cc(-c3cc4c(cc3C(=O)N3Cc5ccccc5C[C@H]3C)CN(C(=O)Cc3ccc(OCCN5CCOCC5)cc3Cl)CC4)n(C)c2C)c2ccc(O)cc2)cc(C#N)n1C
# input Order the records so the highest Ki appears first and the lowest last. Field: ranking. Enter the labels in the order requested.
# output 1, 3, 2
(1: 700 pM, 3: 300 pM, 2: 200 pM)

Cited source: patent US20250179047A1
